# studySystem: human ROR2 (human, UniProt Q01974 34-403, limits assumed)
# Sequence (Q01974 34-403 limits assumed): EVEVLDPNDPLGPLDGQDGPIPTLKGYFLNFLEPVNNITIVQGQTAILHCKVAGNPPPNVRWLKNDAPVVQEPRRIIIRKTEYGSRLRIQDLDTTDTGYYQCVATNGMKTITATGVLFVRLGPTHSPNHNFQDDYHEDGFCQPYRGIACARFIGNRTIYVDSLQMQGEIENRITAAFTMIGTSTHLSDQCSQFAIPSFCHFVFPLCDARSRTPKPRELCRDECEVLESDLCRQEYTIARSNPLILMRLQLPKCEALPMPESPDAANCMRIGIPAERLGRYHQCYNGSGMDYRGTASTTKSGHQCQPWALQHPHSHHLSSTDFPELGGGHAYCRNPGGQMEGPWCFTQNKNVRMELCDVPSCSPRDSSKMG
# assayInfo: SPR

{"binder": "h6E6-050 (antibody, V domains shown, also called clone 50) VH: EVQLVESGGGLVKPGGSLRLSCAASGFTFSRYGMSWVRQAPGKGLEWVSTISSGGGYTHYVDSVKGRFTISRDNAKNSLYLQMNSLRAEDTAVYYCARHPRDFSYAHDYWGQGTTVTVSS VL: EIVMTQSPATLSVSPGERATLSCKASQDVGHYLAWYQQKPGQAPRLLIYWASTRATGIPARFSGSGSGTEFTLTISSLQSEDFAVYYCQQYNIYPWTFGQGTKVEIK", "Kd, nM": 0.482}
{"binder": "h6E6-110 (antibody, V domains shown, also called clone 110) VH: EVQLVESGGGLVKPGGSLRLSCAASGFTFSHYGVSWVRQAPGKGLEWVSTISSGGGYTHYAESVKGRFTISRDNAKNSLYLQMNSLRAEDTAVYYCARHPRDFSYAQDYWGQGTTVTVSS VL: EIVMTQSPATLSVSPGERATLSCRASQDVGHYLAWYQQKPGQAPRLLIYWASTRATGIPARFSGSGSGTEFTLTISSLQSEDFAVYYCQQYNIYPWTFGQGTKVEIK", "Kd, nM": 0.073}
{"binder": "h6E6-106 (antibody, V domains shown, also called clone 106) VH: EVQLVESGGGLVKPGGSLRLSCAASGFTFSSYGISWVRQAPGKGLEWVSTISSGGGYTYYVDSVKGRFTISRDNAKNSLYLQMNSLRAEDTAVYYCARHPRDFSYALDYWGQGTTVTVSS VL: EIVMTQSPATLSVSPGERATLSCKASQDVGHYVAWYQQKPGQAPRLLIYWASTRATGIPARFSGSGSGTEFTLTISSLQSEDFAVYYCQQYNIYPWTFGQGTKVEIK", "Kd, nM": 0.642}
